# Tgt: furin, P09958
# Sequence (P09958 whole entry): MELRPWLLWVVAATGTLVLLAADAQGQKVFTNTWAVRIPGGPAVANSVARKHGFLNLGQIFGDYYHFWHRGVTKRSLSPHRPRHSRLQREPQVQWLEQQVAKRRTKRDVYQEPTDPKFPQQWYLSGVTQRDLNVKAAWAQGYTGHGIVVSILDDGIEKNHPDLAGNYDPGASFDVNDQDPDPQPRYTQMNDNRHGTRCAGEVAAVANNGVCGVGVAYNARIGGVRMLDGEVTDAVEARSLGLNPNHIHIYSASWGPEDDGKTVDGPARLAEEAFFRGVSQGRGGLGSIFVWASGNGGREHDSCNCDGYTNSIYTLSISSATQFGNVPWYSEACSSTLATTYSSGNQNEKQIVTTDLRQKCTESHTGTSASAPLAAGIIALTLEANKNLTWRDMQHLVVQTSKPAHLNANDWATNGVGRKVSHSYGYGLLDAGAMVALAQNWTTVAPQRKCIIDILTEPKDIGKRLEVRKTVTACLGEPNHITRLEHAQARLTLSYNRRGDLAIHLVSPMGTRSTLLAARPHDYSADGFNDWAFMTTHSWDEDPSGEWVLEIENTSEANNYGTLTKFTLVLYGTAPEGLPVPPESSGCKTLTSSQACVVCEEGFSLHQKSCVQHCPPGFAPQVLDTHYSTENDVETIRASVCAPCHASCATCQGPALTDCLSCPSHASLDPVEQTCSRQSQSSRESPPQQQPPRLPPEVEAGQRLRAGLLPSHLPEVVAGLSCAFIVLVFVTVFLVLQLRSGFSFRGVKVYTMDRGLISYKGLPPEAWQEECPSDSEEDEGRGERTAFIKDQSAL
# Experiment Summary: furin cleavage Z-score vs untreated control; higher = more cleavage, active = 3.5 or more, inactive = 1 or less, 8 variable residues between constant flanks;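 also: purified furin at 1:10 enzyme:substrate in 50 mM HEPES pH 7.5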
# Settings: 7.5 min
The list shows a part of the results. The true hit rate is not given.
Known furin cleavage Z-score of a selection of sequences

Consider the following illustrative entries.
[[record]]
chain = "CASWNRVARTAGNASASA [FS-199]"
quantity_name = "furin cleavage Z-score"
observed_value = "4.98 (active)"

[[record]]
chain = "CAQRSRQKKTAGNASASA [FS-1392]"
quantity_name = "furin cleavage Z-score"
observed_value = "-1.4 (inactive)"

[[record]]
chain = "CAQWIRVKRTAGNASASA [FS-372]"
quantity_name = "furin cleavage Z-score"
observed_value = "10 (active)"


Input: # input sequence: CAPGSRKARFAGNASASA [FS-280] ; wanted: its furin cleavage Z-score
Output: 7.61 (active)
